Value source: patent US20240400577A1

pIC50: −log10 of the molar value.
Measurement record for SYK (Homo sapiens); quantity recorded: pIC50.

COc1cc2nccc(Oc3ccc(NC(=O)c4cc(S(C)(=O)=O)n(-c5ccc(F)cc5)n4)cc3F)c2cc1OC ... ≤ 5.00

Assay SYK (Homo sapiens), sample COc1cc2nccc(Oc3ccc(NC(=O)c4cc(SC)n(-c5ccc(F)cc5)n4)c(F)c3)c2cc1OC , pIC50 read: ≤ 5.00

----------
Target: TAOK2 (Homo sapiens)
Construct: Nanosyn (contract laboratory that ran the panel)
Sequence (Q9UL54 1-1235): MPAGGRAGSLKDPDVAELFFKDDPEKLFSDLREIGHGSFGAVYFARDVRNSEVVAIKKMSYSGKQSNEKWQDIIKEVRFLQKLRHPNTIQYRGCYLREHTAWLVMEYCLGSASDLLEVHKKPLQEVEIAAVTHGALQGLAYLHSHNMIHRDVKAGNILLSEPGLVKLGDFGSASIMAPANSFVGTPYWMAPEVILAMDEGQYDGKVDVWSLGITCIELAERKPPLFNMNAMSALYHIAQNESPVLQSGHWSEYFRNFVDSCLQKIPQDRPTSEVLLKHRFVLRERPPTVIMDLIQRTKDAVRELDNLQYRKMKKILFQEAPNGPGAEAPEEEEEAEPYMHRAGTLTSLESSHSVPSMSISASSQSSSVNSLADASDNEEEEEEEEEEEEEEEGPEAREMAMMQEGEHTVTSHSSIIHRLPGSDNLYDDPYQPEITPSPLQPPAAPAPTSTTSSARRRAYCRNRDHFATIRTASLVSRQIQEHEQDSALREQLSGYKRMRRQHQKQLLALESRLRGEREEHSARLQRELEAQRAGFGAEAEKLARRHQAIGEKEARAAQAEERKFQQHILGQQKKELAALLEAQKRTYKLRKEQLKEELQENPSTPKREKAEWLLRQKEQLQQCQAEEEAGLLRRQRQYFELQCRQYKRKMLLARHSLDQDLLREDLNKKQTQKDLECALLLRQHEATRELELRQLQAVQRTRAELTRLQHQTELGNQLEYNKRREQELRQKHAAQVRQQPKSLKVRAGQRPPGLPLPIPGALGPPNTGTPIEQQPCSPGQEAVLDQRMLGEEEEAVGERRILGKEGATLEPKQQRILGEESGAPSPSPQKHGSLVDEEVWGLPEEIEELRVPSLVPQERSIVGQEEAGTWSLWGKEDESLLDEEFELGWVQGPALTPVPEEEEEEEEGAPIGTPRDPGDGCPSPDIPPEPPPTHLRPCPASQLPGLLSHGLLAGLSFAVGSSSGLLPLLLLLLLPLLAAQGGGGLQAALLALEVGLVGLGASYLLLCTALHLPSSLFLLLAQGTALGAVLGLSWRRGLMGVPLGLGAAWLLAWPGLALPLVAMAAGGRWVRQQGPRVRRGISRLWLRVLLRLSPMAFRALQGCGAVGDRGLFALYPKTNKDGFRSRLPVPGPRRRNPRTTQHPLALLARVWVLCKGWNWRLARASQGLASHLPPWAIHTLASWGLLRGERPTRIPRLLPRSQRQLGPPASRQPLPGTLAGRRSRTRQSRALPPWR
Assay: Kinase panel enzymatic inhibition assay (Nanosyn)
Type: biochemical
Details: compound 5 μM; ATP at Km; 30-minute pre-incubation
// reported inhibition at 5 µM for each item listed

Cc1ccc(NC(=O)c2cc(S(C)(=O)=O)n(-c3ccc(F)cc3)n2)cc1-c1cc(OCCO)nc(N2CCOCC2)c1 ... ≥ 95%

The reported value for Cc1ccc(NC(=O)c2cc([S+](C)[O-])n(-c3ccc(F)cc3)n2)cc1C#Cc1cnc2cccnn12 (stereo not shown) in terms of inhibition at 5 µM is < 79%

The reported value for CNC(=O)c1cc(Oc2ccc(NC(=O)c3cc(S(C)(=O)=O)n(-c4ccc(F)cc4)n3)c(F)c2)ccn1 in terms of inhibition at 5 µM is < 79%

----------
// reported inhibition at 5 µM for each item listed
Target: Abl1 (Homo sapiens)
Construct: purchased Nanosyn (contract screening)
Sequence (P00519 whole entry): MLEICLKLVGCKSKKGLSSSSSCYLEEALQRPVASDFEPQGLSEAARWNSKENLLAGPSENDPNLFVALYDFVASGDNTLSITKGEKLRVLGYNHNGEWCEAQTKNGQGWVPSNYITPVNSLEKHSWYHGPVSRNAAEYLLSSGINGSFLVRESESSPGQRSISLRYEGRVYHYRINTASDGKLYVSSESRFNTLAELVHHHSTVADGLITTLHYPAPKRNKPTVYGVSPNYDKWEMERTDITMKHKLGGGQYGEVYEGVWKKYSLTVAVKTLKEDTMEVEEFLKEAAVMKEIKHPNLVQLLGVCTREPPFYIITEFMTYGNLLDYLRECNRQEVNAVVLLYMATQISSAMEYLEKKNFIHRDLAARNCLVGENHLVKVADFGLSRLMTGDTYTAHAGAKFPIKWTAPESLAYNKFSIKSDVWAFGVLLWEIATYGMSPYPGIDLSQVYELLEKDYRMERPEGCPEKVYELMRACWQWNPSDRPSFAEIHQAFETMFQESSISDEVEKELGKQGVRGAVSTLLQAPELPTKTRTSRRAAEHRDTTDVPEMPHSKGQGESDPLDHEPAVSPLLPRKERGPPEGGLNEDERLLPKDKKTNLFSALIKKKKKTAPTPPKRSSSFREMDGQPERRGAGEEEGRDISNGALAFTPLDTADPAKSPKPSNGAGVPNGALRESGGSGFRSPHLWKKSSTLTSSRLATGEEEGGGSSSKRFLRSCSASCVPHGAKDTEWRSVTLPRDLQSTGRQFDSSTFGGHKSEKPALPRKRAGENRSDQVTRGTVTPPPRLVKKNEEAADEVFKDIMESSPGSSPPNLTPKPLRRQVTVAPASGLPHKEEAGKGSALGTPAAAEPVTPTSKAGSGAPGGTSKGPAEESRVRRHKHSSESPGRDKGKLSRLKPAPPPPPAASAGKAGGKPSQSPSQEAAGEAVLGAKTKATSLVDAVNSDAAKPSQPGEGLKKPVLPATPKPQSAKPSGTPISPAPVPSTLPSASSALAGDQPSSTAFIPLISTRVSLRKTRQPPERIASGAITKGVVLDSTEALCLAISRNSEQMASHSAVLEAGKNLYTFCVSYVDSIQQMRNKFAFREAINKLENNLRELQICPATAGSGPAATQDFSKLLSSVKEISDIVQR
Experiment: Kinase panel enzymatic inhibition assay (Nanosyn)
Format: biochemical
Details: compound 5 μM; ATP at Km; 30-minute pre-incubation

Take a look at these entries with their results.
CCOC(=O)Nc1cn2nc(Nc3cc(NC(=O)c4cc(S(C)(=O)=O)n(-c5ccc(F)cc5)n4)ccc3C)ccc2n1 ... ≥ 95%
Cc1ccc(NC(=O)c2cc(S(C)(=O)=O)n(-c3ccc(F)cc3)n2)cc1-c1cc(N2CCOCC2)c(=O)n(C)c1 ... < 79%
CNC(=O)c1cc(Oc2ccc(NC(=O)c3cc(S(C)(=O)=O)n(-c4ccc(F)cc4)n3)c(F)c2)ccn1 ... < 79%
Cc1ccc(NC(=O)c2cc(S(C)(=O)=O)n(-c3ccc(F)cc3)n2)cc1Nc1ccc2ncn(C)c(=O)c2c1 ... < 79%
CNC(=O)c1cc(Oc2ccc(F)c(NC(=O)c3cc([S+](C)[O-])n(-c4ccc(F)cc4)n3)c2)ccn1 (centres unmarked) ... < 79%
Cc1ccc(NC(=O)c2cc(S(C)(=O)=O)n(-c3ccc(F)cc3)n2)cc1C#Cc1cnc2cccnn12 ... < 79%
Cc1ccc(NC(=O)c2cc([S+](C)[O-])n(-c3ccc(F)cc3)n2)cc1-c1cc(OCCO)nc(N2CCOCC2)c1 (centres unmarked) ... < 79%
Cc1ccc(NC(=O)c2cc(S(C)(=O)=O)n(-c3ccc(F)cc3)n2)cc1Nc1nccc(-c2cccnc2N)n1 ... ≥ 95%

The reported value for Cc1ccc(NC(=O)c2cc([S+](C)[O-])n(-c3ccc(F)cc3)n2)cc1C#Cc1cnc2cccnn12 (centres unmarked) in terms of inhibition at 5 µM is < 79%

The reported value for CSc1cc(C(=O)Nc2cc(Oc3ccnc(C(=O)NC4CNC4)c3)ccc2F)nn1-c1ccc(F)cc1 in terms of inhibition at 5 µM is < 79%

The reported value for Cc1ccc(NC(=O)c2cc([S+](C)[O-])n(-c3ccc(F)cc3)n2)cc1Nc1ccc2ncn(C)c(=O)c2c1 (centres unmarked) in terms of inhibition at 5 µM is < 79%

The reported value for Cc1ccc(NC(=O)c2cc(S(C)(=O)=O)n(-c3ccc(F)cc3)n2)cc1-c1cc(OCCO)nc(N2CCOCC2)c1 in terms of inhibition at 5 µM is < 79%

The reported value for CCOC(=O)Nc1cn2nc(Nc3cc(NC(=O)c4cc([S+](C)[O-])n(-c5ccc(F)cc5)n4)ccc3C)ccc2n1 (centres unmarked) in terms of inhibition at 5 µM is ≥ 95%

The reported value for Cc1ccc(NC(=O)c2cc([S+](C)[O-])n(-c3ccc(F)cc3)n2)cc1-c1cc(N2CCOCC2)c(=O)n(C)c1 (centres unmarked) in terms of inhibition at 5 µM is < 79%

----------
Target: p38b (Homo sapiens)
Construct: Nanosyn (contract laboratory that ran the panel)
Sequence (Q15759 whole entry): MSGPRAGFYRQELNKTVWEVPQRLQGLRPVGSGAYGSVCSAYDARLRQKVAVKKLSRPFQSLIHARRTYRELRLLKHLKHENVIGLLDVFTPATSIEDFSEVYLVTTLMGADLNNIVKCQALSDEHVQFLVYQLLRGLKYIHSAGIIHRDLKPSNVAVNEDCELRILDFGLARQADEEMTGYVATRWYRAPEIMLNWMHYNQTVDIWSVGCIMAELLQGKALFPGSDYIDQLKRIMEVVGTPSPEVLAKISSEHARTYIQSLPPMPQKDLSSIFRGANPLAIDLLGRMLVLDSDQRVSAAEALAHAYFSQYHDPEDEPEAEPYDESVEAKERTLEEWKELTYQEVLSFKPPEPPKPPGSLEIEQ
Assay: Kinase panel enzymatic inhibition assay (Nanosyn)
Assay type: biochemical
Settings: compound 5 μM; ATP at Km; 30-minute pre-incubation
Measured Endpoint: inhibition at 5 µM

CCOC(=O)Nc1cn2nc(Nc3cc(NC(=O)c4cc([S+](C)[O-])n(-c5ccc(F)cc5)n4)ccc3C)ccc2n1 (stereo not shown) ... 80 to 89%
CCOC(=O)Nc1cn2nc(Nc3cc(NC(=O)c4cc(S(C)(=O)=O)n(-c5ccc(F)cc5)n4)ccc3C)ccc2n1 ... 80 to 89%
Cc1ccc(NC(=O)c2cc([S+](C)[O-])n(-c3ccc(F)cc3)n2)cc1-c1cc(OCCO)nc(N2CCOCC2)c1 (stereo not shown) ... < 79%
Cc1ccc(NC(=O)c2cc([S+](C)[O-])n(-c3ccc(F)cc3)n2)cc1-c1cc(N2CCOCC2)c(=O)n(C)c1 (stereo not shown) ... < 79%
Cc1ccc(NC(=O)c2cc(S(C)(=O)=O)n(-c3ccc(F)cc3)n2)cc1-c1cc(N2CCOCC2)c(=O)n(C)c1 ... < 79%

Assay p38b (Homo sapiens), sample CNC(=O)c1cc(Oc2ccc(F)c(NC(=O)c3cc([S+](C)[O-])n(-c4ccc(F)cc4)n3)c2)ccn1 (stereo not shown) , inhibition at 5 µM read: < 79%

Assay p38b (Homo sapiens), sample Cc1ccc(NC(=O)c2cc(S(C)(=O)=O)n(-c3ccc(F)cc3)n2)cc1Nc1nccc(-c2cccnc2N)n1 , inhibition at 5 µM read: < 79%

----------
Target: CLK4 (Homo sapiens, UniProt Q9HAZ1)
Construct: purchased Nanosyn (contract screening)
Sequence (Q9HAZ1 whole entry): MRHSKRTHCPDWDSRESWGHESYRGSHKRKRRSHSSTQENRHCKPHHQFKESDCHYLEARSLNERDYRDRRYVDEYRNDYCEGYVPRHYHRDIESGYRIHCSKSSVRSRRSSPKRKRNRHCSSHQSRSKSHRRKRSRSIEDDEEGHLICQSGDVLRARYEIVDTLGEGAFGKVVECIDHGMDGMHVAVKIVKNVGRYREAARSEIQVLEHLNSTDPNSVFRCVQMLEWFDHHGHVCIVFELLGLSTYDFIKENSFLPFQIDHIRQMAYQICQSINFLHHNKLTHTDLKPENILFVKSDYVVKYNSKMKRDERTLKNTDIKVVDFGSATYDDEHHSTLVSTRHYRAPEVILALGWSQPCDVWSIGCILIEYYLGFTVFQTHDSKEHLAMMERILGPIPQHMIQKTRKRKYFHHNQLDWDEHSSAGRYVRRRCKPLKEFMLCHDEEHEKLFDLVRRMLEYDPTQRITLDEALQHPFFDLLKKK
Assay: Kinase panel enzymatic inhibition assay (Nanosyn)
Type: biochemical
Conditions: compound 5 μM; ATP at Km; 30-minute pre-incubation
Description: The disclosed compounds were tested for activity against a panel of at least 300 kinases. […]
Measured Endpoint: inhibition at 5 µM

The reported value for CCOC(=O)Nc1cn2nc(Nc3cc(NC(=O)c4cc([S+](C)[O-])n(-c5ccc(F)cc5)n4)ccc3C)ccc2n1 (stereo not shown) in terms of inhibition at 5 µM is < 79%

The reported value for Cc1ccc(NC(=O)c2cc(S(C)(=O)=O)n(-c3ccc(F)cc3)n2)cc1C#Cc1cnc2cccnn12 in terms of inhibition at 5 µM is < 79%

The reported value for Cc1ccc(NC(=O)c2cc(S(C)(=O)=O)n(-c3ccc(F)cc3)n2)cc1-c1cc(N2CCOCC2)c(=O)n(C)c1 in terms of inhibition at 5 µM is < 79%

The reported value for Cc1ccc(NC(=O)c2cc(S(C)(=O)=O)n(-c3ccc(F)cc3)n2)cc1-c1cc(OCCO)nc(N2CCOCC2)c1 in terms of inhibition at 5 µM is < 79%
